Recorded measurements of Fold increase in potency compared to Chimeric Ab, one per entry
- TESTED_ON: human Siglec-7 on primary human monocyte-derived dendritic cells (human, UniProt Q9Y286 19-467)
- Sequence (Q9Y286 19-467): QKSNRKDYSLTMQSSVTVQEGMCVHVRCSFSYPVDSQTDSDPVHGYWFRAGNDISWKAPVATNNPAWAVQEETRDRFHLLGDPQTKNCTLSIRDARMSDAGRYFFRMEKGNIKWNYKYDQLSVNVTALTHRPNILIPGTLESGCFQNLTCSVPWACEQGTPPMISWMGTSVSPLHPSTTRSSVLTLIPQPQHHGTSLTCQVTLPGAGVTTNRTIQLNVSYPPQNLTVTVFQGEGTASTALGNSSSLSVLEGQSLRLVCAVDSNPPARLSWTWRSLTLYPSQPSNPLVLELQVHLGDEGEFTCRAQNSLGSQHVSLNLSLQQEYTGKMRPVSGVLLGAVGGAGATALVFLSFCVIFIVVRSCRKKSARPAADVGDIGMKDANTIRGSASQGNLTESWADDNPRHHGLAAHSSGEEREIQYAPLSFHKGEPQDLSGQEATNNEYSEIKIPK
- PROTOCOL_NOTES: cell-based or functional assay
PROPERTY_NAME: Fold increase in potency compared to Chimeric Ab (fold)

BINDER | VAL
S7AB-H8.27 (antibody, V domains shown) VH: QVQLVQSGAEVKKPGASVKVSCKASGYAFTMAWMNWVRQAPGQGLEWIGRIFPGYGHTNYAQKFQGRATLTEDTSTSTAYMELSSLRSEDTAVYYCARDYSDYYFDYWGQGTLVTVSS VL: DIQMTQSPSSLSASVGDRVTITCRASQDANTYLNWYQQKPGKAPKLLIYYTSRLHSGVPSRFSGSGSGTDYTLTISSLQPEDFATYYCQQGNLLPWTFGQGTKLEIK | 10.9
S7AB-H8.10.2 (antibody, V domains shown) VH: QVQLVQSGAEVKKPGASVKVSCKASGYAFTEAWMNWVRQARGQRLEWIGRIFPGYGHTNYAQKFQGRATLTEDTSTSTAYMELSSLRSEDTAVYYCARDYSDYYFDYWGQGTLVTVSS VL: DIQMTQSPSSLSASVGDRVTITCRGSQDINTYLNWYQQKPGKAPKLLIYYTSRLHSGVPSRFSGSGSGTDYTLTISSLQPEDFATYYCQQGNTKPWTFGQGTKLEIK | 6.4
S7AB-H8.23 (antibody, V domains shown) VH: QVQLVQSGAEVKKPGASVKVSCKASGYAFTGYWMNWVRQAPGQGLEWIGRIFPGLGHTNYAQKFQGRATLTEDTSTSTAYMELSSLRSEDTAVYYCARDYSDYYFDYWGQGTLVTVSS VL: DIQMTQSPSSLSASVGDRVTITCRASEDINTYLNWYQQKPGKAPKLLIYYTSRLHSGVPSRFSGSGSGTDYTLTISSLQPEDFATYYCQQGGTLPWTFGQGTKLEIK | 11.4
